Origin of values: ChEMBL document CHEMBL1157898

# MEASURED_ON: Gamma-secretase (Homo sapiens) (UniProt Q96BI3+Q9NZ42+Q8WW43+P49768+Q92542+P49810)
# ASSAY_COMMENT: Inhibition of gamma secretase mediated amyloid beta 40 generation in human H4 cells at 10 uM by LPECL assay; values are per cent of control
PARAMETER: residual activity (%)
Answers are plain numbers, in %.

Some compounds with recorded residual activity:
[
  {
    "COMPOUND_STRING": "COc1cc(/C=C2/C(=O)Nc3ccc(Cl)cc32)cc(OC)c1OC",
    "residual activity, %": 72
  },
  {
    "COMPOUND_STRING": "O=C1Nc2ccc(Cl)cc2/C1=C\\c1ccccc1[N+](=O)[O-]",
    "residual activity, %": 88
  }
]

Attention now shifts to the item below.
Tell me measured residual activity for COc1cc(OC)c(/C=C2/C(=O)Nc3ccc(Cl)cc32)c(OC)c1 please. 65
